B1: KLHL14 (parent)
chain: WLYCYDPVMDVWARKQDMNTKRAI

- Variants of: B1
- assayProcedure: protein stability index of a GFP-peptide fusion (GPS, HEK-293T) (PSI 1-6); higher = more stable;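 also: lentivirally expressed fusions sorted by FACS into six bins by GFP to DsRed ratio, PSI derived from sequencing read proportions per bin multiplied by bin number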
- particulars: c terminus: a fixed tail appended
Would you mind labelling by protein stability index? At or over 2 is t, under is f.

residues	groupLabel
WLYCYDPVMDVWARKMDMNTKRAI [Q16M]	t
WLYCYDPVMDVWARSQDMNTKRAI [K15S]	f
WLYCYDPVMDVWARKQDHNTKRAI [M18H]	t
WLYCYDPVMDVWARKQDMNTKRAG [I24G]	t
WLYCYDPVLDVWARKQDMNTKRAI [M9L]	t
WLYCYDPVMDVWARKQDMNTKRCI [A23C]	f
WLYLYDPVMDVWARKQDMNTKRAI [C4L]	f
WLYCYDPVMDVWARKQDMNTKRRI [A23R]	t
WLYCYDPVMDVWARKQDMNNKRAI [T20N]	f
WLYCYDFVMDVWARKQDMNTKRAI [P7F]	t
WLYCYDPVMDVWNRKQDMNTKRAI [A13N]	t
WLYCYDPVMDVWARKQDENTKRAI [M18E]	t
WLYCYDPVMDVWAFKQDMNTKRAI [R14F]	f
WLYCYDPVMVVWARKQDMNTKRAI [D10V]	f
WLYPYDPVMDVWARKQDMNTKRAI [C4P]	t
WLYCYDPVMDVWARKQDMNTKRPI [A23P]	f
WLYCYDPRMDVWARKQDMNTKRAI [V8R]	f
WLYCYDPVMDVIARKQDMNTKRAI [W12I]	f
WLYCYDAVMDVWARKQDMNTKRAI [P7A]	t
WLYCYDPVMDVWARKQDRNTKRAI [M18R]	t
WLYCYDGVMDVWARKQDMNTKRAI [P7G]	f
WLYCYDPVMDVWARHQDMNTKRAI [K15H]	f
WLYCYDPVMDVWARKQAMNTKRAI [D17A]	t
WLYCYDPVTDVWARKQDMNTKRAI [M9T]	t
WLYCYDPVHDVWARKQDMNTKRAI [M9H]	t
WLYCYDPVMDVWARKHDMNTKRAI [Q16H]	t
WLYCYDPVMDPWARKQDMNTKRAI [V11P]	f
WLYCYDPVMDVWAYKQDMNTKRAI [R14Y]	f
WLYCYDPVMDVWARKVDMNTKRAI [Q16V]	t
WLYCYDPVMDVWARKNDMNTKRAI [Q16N]	t
WLYCYDPVMDVWARKQDMNTKRAN [I24N]	t
WLYCYDPVMDVWARKGDMNTKRAI [Q16G]	t
WLYCYDPVSDVWARKQDMNTKRAI [M9S]	t
WLYCYPPVMDVWARKQDMNTKRAI [D6P]	f
WLYCYDPVMDVWAMKQDMNTKRAI [R14M]	f
WLYCYDPVMDVWARKQDMETKRAI [N19E]	f
WLYCIDPVMDVWARKQDMNTKRAI [Y5I]	f
ALYCYDPVMDVWARKQDMNTKRAI [W1A]	t
